system: creatine kinase (CK) in human serum; assay: CK activity measured with enzyme solutions containing SH compounds as CK reactivator, fresh and after 1 month of storage (Example 1 / Comparative Example 1); format: biochemical; details: Sample 2; enzyme solution stored at 20° C. for 1 month; TG 100, 2ME 26, 2MES 26, NAC 26, L-cysteine 6.5, GSH 12, TDG 5, DTT 6.5 mM
quantity: CK activity value (IU/l)
API: value field is a number in IU/l; no unit string.

Note CK activity value for the compound shown: CC(=O)N[C@@H](CS)C(=O)O [NAC, N-acetylcysteine] 499

---

Test system: creatine kinase (CK) in human serum
Test: CK activity measured with enzyme solutions containing SH compounds as CK reactivator, fresh and after 1 month of storage (Example 1 / Comparative Example 1)
Format: biochemical
Conditions: Sample 2; enzyme solution just after preparation; TG 100 mM, 2ME 26 mM, 2MES 26 mM, NAC 26 mM
Experimental: The resulting solution was adjusted to pH 6.7 with sodium hydroxide and stored at a predetermined temperature for a predetermined period. The thus obtained solution were used as enzyme solutions. Five fresh human serum samples were used. To 8 μl of each sample was added 320 μl of each enzyme solution, followed by preincubation for 5 minutes. […] The CK activity value was calculated from the molecular extinction coefficient of the NADPH produced. […]
Quick reference for CK activity value among some compounds
API: value field is a number in IU/l; no unit string.

Some compounds with recorded CK activity value:
- compound: "OCC(O)CS (stereo not shown)"
  resultUnit: "IU/l"
  CK activity value: 553
- compound: "OCCS"
  resultUnit: "IU/l"
  CK activity value: 554
- compound: "CC(=O)N[C@@H](CS)C(=O)O"
  resultUnit: "IU/l"
  CK activity value: 544

Now look at this one.
Find CK activity value for O=S(=O)(O)CCS on creatine kinase (CK) in human serum and write it down. 553

Just for reference, patent US5716797A is where these values come from.
